Data origin, for the record: PubChem BioAssay AID1159580

# assay-notes: chemical genetic growth profiling, strain panel (AID 1159580);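 also: tested at 20 µM; growth read once vehicle control cultures reached saturation at 30 °C; 1 = growth at the plate median or of vehicle wells; lower values mean less growth of the strain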
# test-parameters: S. cerevisiae deletion strains, growth OD, locus YNL307C, strain MCK1 (second series)
Screen size: about 5,500 compounds; about 2,000 (36%) were called active. Not shown: some 18% with an inconclusive outcome. Rule as the data show it: active = normalized growth mostly below about 0.91 (no sharp cut-off); inconclusive = no clear call, values can overlap the other calls; inactive = mostly above about 0.92. The list shows a part of the results.
Choose one outcome from this list and give only that: true (1) = active, false (0) = inactive

Worked set:
>  <compound>
S=C(Nc1cc(-c2cccs2)[nH]n1)Nc1ccccc1Cl

>  <class-name>
false (0)

$$$$
>  <compound>
O=[N+]([O-])c1cc(C(F)(F)F)ccc1-n1ccc(-c2cccs2)n1

>  <class-name>
false (0)

$$$$
>  <compound>
CC(C)(C)C1=NN(c2nc3ccc(Cl)cc3s2)C(=O)C1

>  <class-name>
true (1)

$$$$

Task item: Record request — test call for Cc1ccccc1C(=O)N1CCc2c([nH]c3ccccc23)C1C(F)(F)F (centres undefined)
Reply: false (0)

Task item: Recorded test call requested for CCC(C)c1ccccc1NC(=O)c1cc2cccc([N+](=O)[O-])c2[nH]1 (centres undefined)
Reply: false (0)

Task item: Recorded call for N#C/C(=N/Nc1ccccc1Cl)S(=O)(=O)c1ccc(Cl)cc1 ?
Reply: false (0)

Task item: Hi, do you know how O=C(Nc1c(Br)c(C2CC2)nn1-c1ccccc1)C(Cl)(Cl)Cl came out in this test?
Reply: false (0)

Task item: Hi, do you know how C/C(=N/NC(N)=S)c1ccc(Oc2c(Cl)cncc2Cl)cc1 came out in this test?
Reply: false (0)

Task item: Recorded test call requested for Cn1c([N+](=O)[O-])cnc1/C=C(\C#N)C(=O)Nc1ccc(F)cc1
Reply: true (1)
